// data source = the supplement of paper PMC7877785

assay_summary: self-splicing fitness, log relative to wild type (ln ratio); higher = more splicing; Tetrahymena group I intron in knt gene, E. coli kanamycin selection, DiMSum; sequences stand for … in CUCUCU…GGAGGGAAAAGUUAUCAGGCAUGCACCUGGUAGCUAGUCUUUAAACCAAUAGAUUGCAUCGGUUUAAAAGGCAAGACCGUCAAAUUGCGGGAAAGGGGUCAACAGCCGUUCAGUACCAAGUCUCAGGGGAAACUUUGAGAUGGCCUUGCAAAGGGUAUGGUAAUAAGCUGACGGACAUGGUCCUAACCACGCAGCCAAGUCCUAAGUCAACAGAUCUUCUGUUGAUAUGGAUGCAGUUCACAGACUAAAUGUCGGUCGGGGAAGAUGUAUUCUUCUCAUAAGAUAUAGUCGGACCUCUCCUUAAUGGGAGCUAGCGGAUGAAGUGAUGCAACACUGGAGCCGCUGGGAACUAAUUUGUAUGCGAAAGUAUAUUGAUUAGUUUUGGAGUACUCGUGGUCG;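 note: selection with 25 µg/mL kanamycin versus none on LB agar overnight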
experimental_parameters: 30 °C
Each entry below carries its reported self-splicing fitness (ln).
Field format: numeric only.

Worked cases, answers included:
record_sequence=CCCAAGCAAUAUUACGUCCG reading=-3.6
record_sequence=GGCGAGCAAUAUUACGCUAC reading=-1.38
record_sequence=AUUUAGCAAUAUUACGUGCC reading=-0.606
record_sequence=ACUAAGCAAUAUUACGCACU reading=-0.0279
record_sequence=AUGAAGCAAUAUUACGAGCA reading=-0.665
record_sequence=UUCCAGCAAUAUUACGGGUA reading=-0.292
record_sequence=AGUGAGCAAUAUUACGCGGU reading=-3.93
record_sequence=UAGCAGCAAUAUUACGAAUC reading=-3.68

Returns the measured self-splicing fitness (ln) for the input sequence. Input: CAACAGCAAUAUUACGAAAA
-2.73

Can you look up the measured self-splicing fitness (ln) of CUGCAGCAAUAUUACGAUGU for me?
-3.96

Please give the measured self-splicing fitness (ln) for this sequence: GCUAAGCAAUAUUACGAUCG
-1.1

Item AGUAAGCAAUAUUACGUUGG has what recorded self-splicing fitness (ln)?
-3.59

Record request: self-splicing fitness (ln) value, item GAAAAGCAAUAUUACGGGUU
-1.27

* * *

assay_summary: self-splicing fitness, log relative to wild type (ln ratio); higher = more splicing; Tetrahymena group I intron in knt gene, E. coli kanamycin selection, DiMSum; sequences stand for … in CUCUCU…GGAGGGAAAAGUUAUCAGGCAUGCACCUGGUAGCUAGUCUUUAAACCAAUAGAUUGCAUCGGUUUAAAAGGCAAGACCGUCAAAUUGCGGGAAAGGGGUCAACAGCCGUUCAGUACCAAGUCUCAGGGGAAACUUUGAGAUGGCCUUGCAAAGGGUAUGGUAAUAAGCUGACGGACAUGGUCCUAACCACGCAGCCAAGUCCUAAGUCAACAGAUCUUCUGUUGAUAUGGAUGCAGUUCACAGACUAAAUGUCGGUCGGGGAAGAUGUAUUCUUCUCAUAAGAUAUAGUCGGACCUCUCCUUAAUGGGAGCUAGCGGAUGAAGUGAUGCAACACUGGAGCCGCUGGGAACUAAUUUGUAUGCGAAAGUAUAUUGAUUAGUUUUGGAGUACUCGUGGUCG
experimental_parameters: 30 °C
observation_type: self-splicing fitness (ln)
Answer as a number with no unit attached.

Would you please look over these solved cases?
record_sequence=UAGAAGCAAUAUUACGCGCC reading=-3.18
record_sequence=GACCAGCAAUAUUACGAAUA reading=-1.74
record_sequence=CUCAAGCAAUAUUACGUGCA reading=-3.43
record_sequence=CCCAAGCAAUAUUACGUAAU reading=-4.69
record_sequence=AACGAGCAAUAUUACGCCUG reading=-3.77
record_sequence=ACCCAGCAAUAUUACGAAGC reading=-0.907

Tell me the measured self-splicing fitness (ln) of AGGCAGCAAUAUUACGUCAG , please.
-1.92

Entry UGGGAGCAAUAUUACGGUCG has what self-splicing fitness (ln)?
-1.47

I have this sequence here, UAAAAGCAAUAUUACGACAG , and I need its recorded self-splicing fitness (ln).
-0.555

Consider the sequence AUAUAGCAAUAUUACGGGCA and give its measured self-splicing fitness (ln).
-1.67

Form field: reported self-splicing fitness (ln) of GAAGAGCAAUAUUACGUGAG
-2.97
